For each record, write down the corresponding IRF Lucia reporter activity.
System: RAW-Dual
assay.overview: IRF Lucia reporter activity, fold change vs agonist alone; higher = enhanced IRF activity
study.conditions: library stock concentration (final ~1000-fold dilution): 10 mM; cytotoxicity flag (confluency mask): not cytotoxic; agonist: MPLA (TLR4) […]
The full ranking holds about 2,900 compounds; the median of “IRF Lucia reporter activity, fold change vs agonist alone” is about 0.9, and the highest 2% start at about 2.8. This is one part of a sample in which the highest values are shown more often than they occur.
Lab note: record the figure alone, no unit after it.

[in] # query: IRF Lucia reporter activity of entry CN1CCC(COc2cnc(-c3cccc(Cn4nc(-c5cccc(C#N)c5)ccc4=O)c3)nc2)CC1
[out] 1.37

[in] # query: IRF Lucia reporter activity of entry CN(C)CCSSCCNC(=O)C1CCN(C(=O)CSc2ccc(Cl)cc2)CC1.O=C(O)C(F)(F)F
[out] 0.751

[in] # query: IRF Lucia reporter activity of entry Cn1cnc2c(F)c(Nc3ccc(Br)cc3F)c(C(=O)NOCCO)cc21
[out] 2.67

[in] # query: IRF Lucia reporter activity of entry CN1CCC(CNc2ccc3ncc(-c4cccc(OC(F)(F)F)c4)n3n2)CC1
[out] 1.07

[in] # query: IRF Lucia reporter activity of entry Cn1cnc2c(F)c(Nc3ccc(Br)cc3Cl)c(C(=O)NOCCO)cc21
[out] 2.77

[in] # query: IRF Lucia reporter activity of entry CC1CC(C(=O)O)C2CCC3(C)C(=CCC4C5(C)CCC(O)C(C)(C)C5CCC43C)C2C1C (centres undefined)
[out] 1.06

[in] # query: IRF Lucia reporter activity of entry O=C(CCc1ccc(O)cc1)c1c(O)cccc1OC1OC(CO)C(O)C(O)C1O (centres undefined)
[out] 1.01

[in] # query: IRF Lucia reporter activity of entry COc1cc(C(=O)O)ccc1NC(=O)C1NC(CC(C)(C)C)C(C#N)(c2ccc(Cl)cc2F)C1c1cccc(Cl)c1F (centres undefined)
[out] 0.67

[in] # query: IRF Lucia reporter activity of entry OCC1=CC(O)C2C=COC(OC3OC(CO)C(O)C(O)C3O)C12 (centres undefined)
[out] 1.01
